target-or-test-system: glucagon receptor (rat hepatocyte membrane) (Rattus norvegicus, UniProt P30082)
Construct: A cell membrane was prepared from the liver of an SD rat; from tissue; host or cells: SD rat liver (cell membrane fraction)
Sequence (P30082 27-485): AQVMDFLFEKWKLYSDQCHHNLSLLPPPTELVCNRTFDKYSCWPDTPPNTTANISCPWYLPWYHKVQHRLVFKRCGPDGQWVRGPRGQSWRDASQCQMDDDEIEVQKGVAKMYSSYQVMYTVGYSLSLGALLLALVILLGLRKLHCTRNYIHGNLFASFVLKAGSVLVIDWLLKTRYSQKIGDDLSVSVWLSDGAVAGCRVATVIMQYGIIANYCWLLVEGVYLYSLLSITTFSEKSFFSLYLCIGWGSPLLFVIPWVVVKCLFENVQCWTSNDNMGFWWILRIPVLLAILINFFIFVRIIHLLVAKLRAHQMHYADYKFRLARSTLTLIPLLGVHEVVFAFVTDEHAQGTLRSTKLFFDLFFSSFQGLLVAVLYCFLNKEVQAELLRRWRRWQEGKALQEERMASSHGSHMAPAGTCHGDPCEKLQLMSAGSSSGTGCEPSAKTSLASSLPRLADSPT
assay-overview: Glucagon receptor binding inhibition
cond: SD rat liver cell membrane, 50 pM (3-[125I]iodotyrosyl10)glucagon, 25° C., 120 minutes; read-out: IC50 (nM) Rat, glucagon receptor binding inhibitory activity
IC50 listing for selected compounds.
Answer format: numeric, nM implied, no suffix.

Some compounds with recorded IC50:
**Query** Return the recorded IC50 value; entry: Cc1ccc([C@H](C)Nc2ccc(-c3ccoc3C(=O)NNC(=O)c3ccc(O)c([N+](=O)[O-])c3)cc2)cc1
**Result** 0.085

**Query** Could you please provide reported IC50 for C[C@H](Nc1ccc(-c2ccoc2C(=O)NNC(=O)c2ccc(O)c([N+](=O)[O-])c2)cc1)C1CCCCC1 ? Thanks!
**Result** 0.35

Next:
**Query** Provide measured IC50 value, entry: N#Cc1cc(C(=O)NNC(=O)c2occc2-c2cccc(NC(=O)OCc3ccccc3)c2)ccc1O [Compound D, reference compound]
**Result** 400

**Query** Identify the reported IC50 for the following entry. O=C(NNC(=O)c1occc1-c1ccc(NCc2ccc(OC(F)(F)F)cc2)cc1)c1ccc(O)c([N+](=O)[O-])c1
**Result** 0.34

**Query** Indicate its recorded IC50; the compound in question is Cc1ccc([C@H](C)Nc2ccc(-c3ccoc3C(=O)NNC(=O)c3ccc(O)c([N+](=O)[O-])c3)cc2)cc1C
**Result** 0.043

**Query** Read off the recorded IC50 for CC(=O)N(Cc1ccccc1)c1cccc(-c2ccoc2C(=O)NNC(=O)c2ccc(O)c(C#N)c2)c1 [Compound B, reference compound]
**Result** 1200

**Query** Please give the documented IC50 of C[C@@H](Nc1ccc(-c2ccoc2C(=O)NNC(=O)c2ccc(O)c([N+](=O)[O-])c2)cc1)c1ccc(F)cc1
**Result** 5.8

**Query** Check the records and state IC50 for N#Cc1cc(C(=O)NNC(=O)c2occc2-c2cccc(NC(=O)c3ccccc3)c2)ccc1O [Compound A, reference compound]
**Result** 2800

**Query** Write down IC50 measured for item CC(=O)Nc1cccc(-c2ccoc2C(=O)NNC(=O)c2ccc(O)c(C#N)c2)c1 [Compound C, reference compound]
**Result** 340

---

target-or-test-system: glucagon receptor (rat hepatocyte membrane) (Rattus norvegicus)
Construct: A cell membrane was prepared from the liver of an SD rat; from tissue; host or cells: SD rat liver (cell membrane fraction)
assay-overview: Glucagon receptor binding inhibition
cond: SD rat liver cell membrane, 50 pM (3-[125I]iodotyrosyl10)glucagon, 25° C., 120 minutes; read-out: IC50 (nM) Rat, glucagon receptor binding inhibitory activity
Protocol: The composition of the reaction solution used in the receptor binding inhibition experiment was prepared according to the method described in Bioorg. Med. Chem. Lett., 1992, 12, 915-918, using the following methods. […] The amount of specific binding in the absence of a test compound was regarded as 100%, and inhibitions (%) at various concentrations of test compounds were calculated. […]
Where a name gives a salt, the structure may show the parent alone.
measure: log10(IC50) (log10 of the value in nM)
Kindly note that the scale is log10 and the underlying IC50 is in nM.

**Query** State log10(IC50) on glucagon receptor (rat hepatocyte membrane) (Rattus norvegicus). Entry: Cc1cc([C@H](C)Nc2ccc(-c3ccoc3C(=O)NNC(=O)c3ccc(O)c([N+](=O)[O-])c3)cc2)ccc1Cl
**Result** -0.92

**Query** Report measured log10(IC50) on glucagon receptor (rat hepatocyte membrane) (Rattus norvegicus); entry: C[C@H](Nc1ccc(-c2ccoc2C(=O)NNC(=O)c2ccc(O)c(C#N)c2)cc1)c1ccc(F)cc1
**Result** -0.13

**Query** Enter measured log10(IC50), system glucagon receptor (rat hepatocyte membrane) (Rattus norvegicus), for the molecule shown: Cc1ccc(C(C)Nc2ccc(-c3ccoc3C(=O)NNC(=O)c3ccc(O)c([N+](=O)[O-])c3)cc2)cc1 (stereo not shown) [Example 1, hydrochloride]
**Result** -0.66

**Query** Please respond with reported log10(IC50) (system glucagon receptor (rat hepatocyte membrane) (Rattus norvegicus)) for CCc1ccc([C@H](C)Nc2ccc(-c3ccoc3C(=O)NNC(=O)c3ccc(O)c([N+](=O)[O-])c3)cc2)cc1 .
**Result** -0.89

**Query** Report measured log10(IC50) on glucagon receptor (rat hepatocyte membrane) (Rattus norvegicus); entry: CC(C)(C)c1ccc(CNc2ccc(-c3ccoc3C(=O)NNC(=O)c3ccc(O)c([N+](=O)[O-])c3)cc2)cc1
**Result** -0.89

**Query** Provide measured log10(IC50) on glucagon receptor (rat hepatocyte membrane) (Rattus norvegicus) for C[C@H](Nc1ccc(-c2ccoc2C(=O)NNC(=O)c2ccc(O)c([N+](=O)[O-])c2)cc1)c1ccccc1 please.
**Result** -0.21

***
**Query** Provide the reported log10(IC50) (system: glucagon receptor (rat hepatocyte membrane) (Rattus norvegicus)) for N#Cc1cc(C(=O)NNC(=O)c2occc2-c2cccc(N)c2)ccc1O [Compound E, reference compound]
**Result** 3.99

**Query** Tell me log10(IC50) of C[C@H](Nc1ccc(-c2ccoc2C(=O)NNC(=O)c2ccc(O)c([N+](=O)[O-])c2)cc1)c1ccc(Cl)cc1 when tested on glucagon receptor (rat hepatocyte membrane) (Rattus norvegicus).
**Result** -0.85

**Query** Print glucagon receptor (rat hepatocyte membrane) (Rattus norvegicus) log10(IC50) for Cc1cccc([C@H](C)Nc2ccc(-c3ccoc3C(=O)NNC(=O)c3ccc(O)c([N+](=O)[O-])c3)cc2)c1 .
**Result** -0.80

**Query** Enter recorded log10(IC50) with glucagon receptor (rat hepatocyte membrane) (Rattus norvegicus) for C[C@H](Nc1ccc(-c2ccoc2C(=O)NNC(=O)c2ccc(O)c([N+](=O)[O-])c2)cc1)c1ccc(F)cc1 here.
**Result** -0.96
